The reported numbers originate from paper PMC12167799.

Target: T1, SWSAP1 (hSWS1-SWSAP1, WT);hSWS1 (Homo sapiens;Homo sapiens, UniProt Q6NVH7;Q19AV6 22-250;1-140, |)
T1 sequence 1: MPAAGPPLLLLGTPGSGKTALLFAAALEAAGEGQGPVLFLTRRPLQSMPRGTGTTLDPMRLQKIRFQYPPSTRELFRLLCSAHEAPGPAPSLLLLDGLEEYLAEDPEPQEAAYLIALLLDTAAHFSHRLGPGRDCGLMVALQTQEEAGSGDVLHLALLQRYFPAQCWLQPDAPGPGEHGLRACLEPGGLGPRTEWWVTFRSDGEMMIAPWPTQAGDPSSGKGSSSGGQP
T1 sequence 2: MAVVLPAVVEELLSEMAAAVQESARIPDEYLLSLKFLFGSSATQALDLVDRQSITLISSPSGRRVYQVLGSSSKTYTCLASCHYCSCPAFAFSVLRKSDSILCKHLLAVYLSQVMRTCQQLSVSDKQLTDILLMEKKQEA
Assay: fluorescence polarization; 2 mM ATP; FPA: 5 nM 6-FAM DNA, 37 C, 2 mM nucleotide where stated (buffer not given in material); EMSA: 0.05 uM 6-FAM DNA, 5%/15% native PAGE; RAD51 filaments: 2 mM ATP
Details: protein: recombinant;recombinant; tags: N-terminal 6xHis-TEV, cleaved;none; copies: 1;1; label: 3' 6-FAM
recordedMetric: Kd

{"binder": "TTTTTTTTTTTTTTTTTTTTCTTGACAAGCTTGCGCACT (ssDNA) [ss39]", "recordedMetric": "Kd", "reportedValue": "6.9 µM"}
